Target: human CCR6 (Homo sapiens)
Sequence (P51684 whole entry): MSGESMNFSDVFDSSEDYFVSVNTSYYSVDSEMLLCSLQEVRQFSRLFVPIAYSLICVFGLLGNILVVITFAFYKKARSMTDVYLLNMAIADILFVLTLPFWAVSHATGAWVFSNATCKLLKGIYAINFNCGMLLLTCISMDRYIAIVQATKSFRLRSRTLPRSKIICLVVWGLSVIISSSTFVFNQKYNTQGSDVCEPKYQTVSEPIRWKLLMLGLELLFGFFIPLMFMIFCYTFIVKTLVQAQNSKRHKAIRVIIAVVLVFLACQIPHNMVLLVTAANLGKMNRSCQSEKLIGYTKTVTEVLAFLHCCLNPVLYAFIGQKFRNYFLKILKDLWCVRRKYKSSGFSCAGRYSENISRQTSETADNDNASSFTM
Assay: FLIPR assay (calcium flux, inhibition of CCL20 agonist response)
Conditions: HEK-293 cells expressing human CCR6; agonist CCL20 10 nM; 30 min preincubation; mean values if determined several times
pIC50 for assorted compounds
Scale for pIC50: -log10 of concentration given in mol/L; no unit attached.

Completed entries (count: 10):
{"columns": ["compound", "test target", "parameter", "numeric readout"],
 "data": [
  ["CC(=O)N[C@H]1CC[C@H](c2nc(-c3cncc([C@@](O)(c4ccc(CC(F)(F)F)cc4)C4(C)CN(C)C4)c3)no2)CC1", "human CCR6 (Homo sapiens)", "pIC50", 6.65],
  ["CC(C)c1ccc([C@](O)(c2cncc(-c3noc(C45CCC(C(N)=O)(CC4)CC5)n3)c2)C2(C)CN(C)C2)cc1", "human CCR6 (Homo sapiens)", "pIC50", 7.43],
  ["CC(=O)NC1CCC(c2nc(-c3cncc([C@@](O)(c4ccc(C(C)C)cc4)C4(C)CN(C)C4)c3)no2)CC1 (single isomer, unassigned)", "human CCR6 (Homo sapiens)", "pIC50", 7.28],
  ["CC(=O)NC12CC(c3nc(-c4cncc([C@@](O)(c5ccc(C(C)C)cc5)C5(C)CN(C)C5)c4)no3)(C1)C2", "human CCR6 (Homo sapiens)", "pIC50", 7.25],
  ["CCC(=O)N[C@H]1CC[C@H](c2nc(-c3cncc([C@@](O)(c4ccc(C(C)C)cc4)C4(C)CN(C)C4)c3)no2)CC1", "human CCR6 (Homo sapiens)", "pIC50", 7.10],
  ["CN1CC(C)([C@](O)(c2ccc(CC(F)(F)F)cc2)c2cncc(-c3noc(C45CC(CO)(C4)C5)n3)c2)C1", "human CCR6 (Homo sapiens)", "pIC50", 6.85],
  ["CC(C)c1ccc([C@](O)(c2cncc(C#C[C@H]3CC[C@@H](O)CC3)c2)C2(C)CN(C)C2)cc1", "human CCR6 (Homo sapiens)", "pIC50", 7.60],
  ["CC(C)c1ccc([C@](O)(c2cncc(-c3noc(C45CCC(O)(CC4)CC5)n3)c2)C2(C)CN(C)C2)cc1", "human CCR6 (Homo sapiens)", "pIC50", 7.62],
  ["CN1CC(C)([C@](O)(c2ccc(CC(F)(F)F)cc2)c2cncc(-c3nc(C45CC(CO)(C4)C5)no3)c2)C1", "human CCR6 (Homo sapiens)", "pIC50", 6.84],
  ["CC(=O)N1CC2(CC(c3nc(-c4cncc([C@@](O)(c5ccc(C(C)C)cc5)C5(C)CN(C)C5)c4)no3)C2)C1", "human CCR6 (Homo sapiens)", "pIC50", 6.95]
]}

Asked: Would you mind telling me what pIC50 value was observed for CC(C)c1ccc([C@](O)(c2cncc(-c3noc(C4CCC(C(N)=O)CC4)n3)c2)C2(C)CN(C)C2)cc1 (stereo partly shown) ?
Given back: 7.33

Asked: Would you mind telling me what pIC50 value was observed for CN1CC(C)([C@](O)(c2ccc(CC(F)(F)F)cc2)c2cncc(-c3nc(C(C)(C)CO)no3)c2)C1 ?
Given back: 6.84

Asked: Would you mind telling me what pIC50 value was observed for CN1CC(C)([C@](O)(c2ccc(CC(F)(F)F)cc2)c2cncc(-c3noc([C@H]4CC[C@H](O)CC4)n3)c2)C1 ?
Given back: 7.08

* * *

Target: human CCR6 (Homo sapiens)
Construct: expressed in transfected cells; host or cells: HEK-293
Assay: FLIPR assay (calcium flux, inhibition of CCL20 agonist response)
Type: cell-based
Conditions: HEK-293 cells expressing human CCR6; agonist CCL20 10 nM; 30 min preincubation; mean values if determined several times
parameter: IC50 (nM)
State just the number; it will be interpreted in nM.

Completed entries (count: 2):
{"columns": ["molecule", "IC50 [nM]"],
 "data": [
  ["CN1CC(C)([C@](O)(c2ccc(CC(F)(F)F)cc2)c2cncc(-c3noc(C45CCC(C(N)=O)(CC4)CC5)n3)c2)C1 [Example 15]", 65.3],
  ["CC(C)c1ccc([C@](O)(c2cncc(C#CC(C)(O)c3ccncn3)c2)C2(C)CN(C)C2)cc1 (single isomer, unassigned) [Example 10]", 71.5]
]}

Turning now to a further record.
Asked: Would you mind telling me what IC50 value was observed for CC(C)c1ccc([C@](O)(c2cncc(C#C[C@H]3CC[C@H](O)CC3)c2)C2(C)CN(C)C2)cc1 [Example 11] ?
Given back: 28.7
